- Target desc: human cloned 5-HT6 receptors (Homo sapiens)
- Sequence (P50406 whole entry): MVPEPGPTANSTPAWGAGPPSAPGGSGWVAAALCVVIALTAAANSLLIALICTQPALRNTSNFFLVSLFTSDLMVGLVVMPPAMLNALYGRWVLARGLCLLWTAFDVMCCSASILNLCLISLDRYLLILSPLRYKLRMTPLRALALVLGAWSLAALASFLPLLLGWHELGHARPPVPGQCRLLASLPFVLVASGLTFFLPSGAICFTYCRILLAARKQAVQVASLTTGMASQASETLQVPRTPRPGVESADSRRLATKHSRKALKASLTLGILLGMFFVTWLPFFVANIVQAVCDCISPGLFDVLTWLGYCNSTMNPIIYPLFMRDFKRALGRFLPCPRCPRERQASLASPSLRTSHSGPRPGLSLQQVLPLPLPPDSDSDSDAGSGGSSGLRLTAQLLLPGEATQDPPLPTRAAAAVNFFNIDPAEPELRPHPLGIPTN
Ki vs 40 nM: less than gives class 1; not less than gives class 0.

>>> cat("CN(C)C1CCc2ccc3c(ccn3S(=O)(=O)c3c(Cl)nc4sccn34)c2C1 (centres unmarked) [Example 18]")
"class 1"
>>> cat("Cc1ccc(S(=O)(=O)n2ccc3c4c(ccc32)CCC(NC2CC2)C4)cc1 (centres unmarked) [Example 21]")
"class 0"
>>> cat("CN(C)C1CCc2ccc3c(ccn3S(=O)(=O)c3ccc(F)cc3)c2C1 (centres unmarked) [Example 11]")
"class 1"
>>> cat("CN(C)C1CCc2ccc3c(ccn3S(=O)(=O)c3ccc(OC(F)(F)F)cc3)c2C1 (centres unmarked) [Example 9]")
"class 0"
>>> cat("Cc1ccc(S(=O)(=O)n2ccc3c4c(ccc32)CCC(NC2CCC2)C4)cc1 (centres unmarked) [Example 24]")
"class 1"

Entry source: patent US7671079B2
